Measured values drawn from patent US8987195B2 for this set.

Biological target: HCV NS3/4A protease genotype 1b (Hepatitis C virus genotype 1b)
Experiment: HCV NS3/4A protease time-resolved fluorescence (TRF) assay, Ki against genotype 1b
Assay type: biochemical
Conditions: IC50 [gt-1b], NS3/4A protease TRF assay, genotype 1b enzyme 0.2 nM; K+ salt
readoutName: log10 IC50 (log10 of the value in pM)
Values below are the log10 of the recorded IC50, with pM as the unit.

**Query** Look up and report measured log10 IC50 for this entry: `CC[C@H](C)OC(=O)N[C@H]1CCCCC/C=C\[C@@H]2C[C@@]2(C(=O)NS(=O)(=O)C2(C)CC2)NC(=O)[C@@H]2C[C@]3(CCc4c(c(C(F)(F)F)nc5ccc(OC)cc45)O3)CN2C1=O`
**Result** 1.53

**Query** Look up and report measured log10 IC50 for this entry: `COc1ccc2nc(C(F)F)c3c(c2c1)CC[C@]1(C[C@H]2C(=O)N[C@]4(C(=O)NS(=O)(=O)C5(C)CC5)C[C@H]4/C=C\CCCCC[C@H](NC(=O)O[C@@H](C)C(C)C)C(=O)N2C1)O3`
**Result** 1.38

**Query** Look up and report measured log10 IC50 for this entry: CC1(S(=O)(=O)NC(=O)[C@@]23C[C@H]2/C=C\CCCCC[C@H](NC(=O)OC2C[C@@H]4C[C@@H]4C2)C(=O)N2C[C@@]4(CCc5c(c(C(F)(F)F)nc6ccc(OCF)cc56)O4)C[C@H]2C(=O)N3)CC1 (stereo partly drawn)
**Result** 0.60

**Query** Look up and report measured log10 IC50 for this entry: `COc1ccc2nc(C(F)F)c3c(c2c1)CC[C@]1(C[C@H]2C(=O)N[C@]4(C(=O)NS(=O)(=O)C5(C)CC5)C[C@H]4/C=C\CCCCC[C@H](NC(=O)OC4(C)CCC4)C(=O)N2C1)O3`
**Result** 0.48

**Query** Look up and report measured log10 IC50 for this entry: `CCc1nc2ccc(OCCCOC)cc2c2c1O[C@]1(CC2)C[C@H]2C(=O)N[C@]3(C(=O)NS(=O)(=O)C4(C)CC4)C[C@H]3/C=C\CCCCC[C@H](NC(=O)OCC(C)C)C(=O)N2C1`
**Result** 0.48

**Query** Look up and report measured log10 IC50 for this entry: `CCCOC(=O)N[C@H]1CCCCC/C=C\[C@@H]2C[C@@]2(C(=O)NS(=O)(=O)C2(C)CC2)NC(=O)[C@@H]2C[C@]3(CCc4c(c(C(F)F)nc5ccc(OC)cc45)O3)CN2C1=O`
**Result** 0.70

**Query** Look up and report measured log10 IC50 for this entry: `COc1ccc2nc(C(F)F)c3c(c2c1)CC[C@]1(C[C@H]2C(=O)N[C@]4(C(=O)NS(=O)(=O)C5(C)CC5)C[C@H]4/C=C\CCCCC[C@H](NC(=O)OCC4CCC4)C(=O)N2C1)O3`
**Result** 1.00

**Query** Look up and report measured log10 IC50 for this entry: COCCCOc1ccc2nc(C(F)(F)F)c3c(c2c1)CC[C@]1(C[C@H]2C(=O)N[C@]4(C(=O)NS(=O)(=O)C5(C)CC5)C[C@H]4/C=C\CCCCC[C@H](NC(=O)OC4(C)CCC4)C(=O)N2C1)O3 [Example 523]
**Result** 0.95

**Query** Look up and report measured log10 IC50 for this entry: `COC(=O)N[C@H]1CCCCC/C=C\[C@@H]2C[C@@]2(C(=O)NS(=O)(=O)C2(C)CC2)NC(=O)[C@@H]2C[C@]3(CCc4c(c(C5CC5)nc5ccc(OC)cc45)O3)CN2C1=O`
**Result** 1.84

* * *

Target: HCV NS3/4A protease genotype 1b (Hepatitis C virus genotype 1b, UniProt P26663)
Experiment: HCV NS3/4A protease time-resolved fluorescence (TRF) assay, Ki against genotype 1b
Type: biochemical
Conditions: IC50 [gt-1b] (nM), NS3/4A genotype 1b, enzyme 0.2 nM
Give IC50 for every item shown.
Numbers only here, please. The scale is nM.

**Query** Tell me IC50 of Cc1nc2ccccc2c2c1O[C@]1(CC2)C[C@H]2C(=O)N[C@]3(C(=O)NS(=O)(=O)C4(C)CC4)C[C@H]3/C=C\CCCCC[C@H](NC(=O)N(C)C)C(=O)N2C1 [Example 228] when tested on HCV NS3/4A protease genotype 1b (Hepatitis C virus genotype 1b, UniProt P26663).
**Result** 0.025

**Query** Tell me IC50 of CC1(OC(=O)N[C@H]2CCCCC/C=C\[C@@H]3C[C@@]3(C(=O)NS(=O)(=O)C3(C)CC3)NC(=O)[C@@H]3C[C@]4(CCc5c(c(C6CC6)nc6ccccc56)O4)CN3C2=O)CC1 [Example 102] when tested on HCV NS3/4A protease genotype 1b (Hepatitis C virus genotype 1b, UniProt P26663).
**Result** 0.004

**Query** Tell me IC50 of CCc1ccc2nc(C)c3c(c2c1)CC[C@]1(C[C@H]2C(=O)N[C@]4(C(=O)NS(=O)(=O)C5(C)CC5)C[C@H]4/C=C\CCCCC[C@H](NC(=O)OC(C)(C)C(F)(F)F)C(=O)N2C1)O3 [Example 314] when tested on HCV NS3/4A protease genotype 1b (Hepatitis C virus genotype 1b, UniProt P26663).
**Result** 0.013

**Query** Tell me IC50 of Cc1nc2ccc(OC(F)(F)F)cc2c2c1O[C@]1(CC2)C[C@H]2C(=O)N[C@]3(C(=O)NS(=O)(=O)C4(C)CC4)C[C@H]3/C=C\CCCCC[C@H](NC(=O)OC(C)C)C(=O)N2C1 [Example 123] when tested on HCV NS3/4A protease genotype 1b (Hepatitis C virus genotype 1b, UniProt P26663).
**Result** 0.017

**Query** Tell me IC50 of Cc1nc2ccccc2c2c1O[C@]1(CC2)C[C@H]2C(=O)N[C@]3(C(=O)NS(=O)(=O)C4(C)CC4)C[C@H]3/C=C\CCCCC[C@H](NC(=O)OC(C)C(F)(F)F)C(=O)N2C1 (some centres unmarked) [Example 197] when tested on HCV NS3/4A protease genotype 1b (Hepatitis C virus genotype 1b, UniProt P26663).
**Result** 0.004

* * *

Target: HCV NS3/4A protease A156T mutant (Hepatitis C virus genotype 1b, UniProt P26663, A1182T)
Assay: HCV NS3/4A protease time-resolved fluorescence (TRF) assay, Ki against A156T mutant
Format: biochemical
readoutName: pIC50
The read-out pIC50 is expressed as -log10 of concentration in moles per litre.

**Query** Look up and report measured pIC50 for this entry: COc1ccc2nc(C(F)(F)F)c3c(c2c1)CC[C@]1(C[C@H]2C(=O)N[C@]4(C(=O)NS(=O)(=O)C5(C)CC5)C[C@H]4/C=C\CCCCC[C@H](NC(=O)OCC(C)C)C(=O)N2C1)O3 [Example 6]
**Result** 9.23

* * *

Target: HCV NS3/4A protease A156T mutant (Hepatitis C virus genotype 1b, UniProt P26663, A1182T)
Assay: HCV NS3/4A protease time-resolved fluorescence (TRF) assay, Ki against A156T mutant
Type: biochemical
Details: NS3/4A gt-1b A156T mutant, enzyme 0.4 nM; read-out: IC50 [gt-1b A156T]
readoutName: IC50 (nM)
Numbers only here, please. The scale is nM.

**Query** Tell me IC50 of CC(C)(C)OC(=O)N[C@H]1CCCCC/C=C\[C@@H]2C[C@@]2(C(=O)NS(=O)(=O)C2(C)CC2)NC(=O)[C@@H]2C[C@]3(CCc4c(c(C(F)(F)F)nc5ccc(OCCCN6CCOCC6)cc45)O3)CN2C1=O [Example 50] when tested on HCV NS3/4A protease A156T mutant (Hepatitis C virus genotype 1b, UniProt P26663, A1182T).
**Result** 0.0786

**Query** Tell me IC50 of Cc1nc2ccccc2c2c1O[C@@]1(CC2)C[C@H]2C(=O)N[C@]3(C(=O)NS(=O)(=O)C4(C)CC4)C[C@H]3/C=C\CCCCC[C@H](NC(=O)NC(C)(C)C)C(=O)N2C1 [Example 78] when tested on HCV NS3/4A protease A156T mutant (Hepatitis C virus genotype 1b, UniProt P26663, A1182T).
**Result** 3.11

**Query** Tell me IC50 of Cc1nc2ccccc2c2c1O[C@]1(CC2)C[C@H]2C(=O)N[C@]3(C(=O)NS(=O)(=O)C4(C)CC4)C[C@H]3/C=C\CCCCC[C@H](NC(=O)OC(C)(C)C)C(=O)N2C1 [Example 74] when tested on HCV NS3/4A protease A156T mutant (Hepatitis C virus genotype 1b, UniProt P26663, A1182T).
**Result** 0.124

**Query** Tell me IC50 of Cc1nc2ccc(C(F)(F)F)cc2c2c1O[C@]1(CC2)C[C@H]2C(=O)N[C@]3(C(=O)NS(=O)(=O)C4(C)CC4)C[C@H]3/C=C\CCCCC[C@H](NC(=O)OCC(C)(C)C)C(=O)N2C1 [Example 255] when tested on HCV NS3/4A protease A156T mutant (Hepatitis C virus genotype 1b, UniProt P26663, A1182T).
**Result** 0.679

**Query** Tell me IC50 of Cc1nc2ccccc2c2c1O[C@]1(CC2)C[C@H]2C(=O)N[C@]3(C(=O)NS(=O)(=O)C4(C)CC4)C[C@H]3/C=C\CCCCC[C@H](NC(=O)OC3(C)CC3)C(=O)N2C1 [Example 79] when tested on HCV NS3/4A protease A156T mutant (Hepatitis C virus genotype 1b, UniProt P26663, A1182T).
**Result** 0.151

**Query** Tell me IC50 of COc1ccc2nc(C)c3c(c2c1)CC[C@]1(C[C@H]2C(=O)N[C@]4(C(=O)NS(=O)(=O)C5(C)CC5)C[C@H]4/C=C\CCCCC[C@H](NC(=O)OC4(C)COC4)C(=O)N2C1)O3 [Example 198] when tested on HCV NS3/4A protease A156T mutant (Hepatitis C virus genotype 1b, UniProt P26663, A1182T).
**Result** 0.104
